Entries with reported MIC on Enterococcus faecalis ATCC 51299

Compound: CCCC#Cc1ccc(-n2nnc(C(C)=NNC(=N)N)c2C)cc1 [Compound 19]
MIC: 8 µg/mL

Compound: CC(=NNC(=N)N)c1nnn(-c2ccc(C#CC3CCCC3)cc2)c1C [Compound 25]
MIC: > 64 µg/mL

Compound: CC(=O)NC[C@H]1CN(c2ccc(N3CCOCC3)c(F)c2)C(=O)O1 [Linezolid, reference compound]
MIC: 1 µg/mL

Compound: CN[C@H](CC(C)C)C(=O)N[C@H]1C(=O)N[C@@H](CC(N)=O)C(=O)N[C@H]2C(=O)N[C@H]3C(=O)N[C@H](C(=O)N[C@H](C(=O)O)c4cc(O)cc(O)c4-c4cc3ccc4O)[C@H](O)c3ccc(c(Cl)c3)Oc3cc2cc(c3O[C@@H]2O[C@H](CO)[C@@H](O)[C@H](O)[C@H]2O[C@H]2C[C@](C)(N)[C@H](O)[C@H](C)O2)Oc2ccc(cc2Cl)[C@H]1O [Vancomycin, reference compound]
MIC: 64 µg/mL

Compound: CCCCCCC#Cc1ccc(-n2nnc(C(C)=NNC(=N)N)c2C)cc1 [Compound 22]
MIC: 64 µg/mL

Compound: CC(=NNC(=N)N)c1nnn(-c2ccc(C#Cc3ccc(C)cc3)cc2)c1C [Compound 31]
MIC: 8 µg/mL

====

- Tested on: Enterococcus faecalis ATCC 51299
Listed below: MIC values for each entry.

Smiles Structure: CC(=NNC(=N)N)c1nnn(-c2ccc(C#CCC(C)C)cc2)c1C
MIC: 8 µg/mL
//
Smiles Structure: CC(=NNC(=N)N)c1nnn(-c2ccc(C#CC3CC3)cc2)c1C
MIC: > 64 µg/mL
//
Smiles Structure: CC(=NNC(=N)N)c1nnn(-c2ccc(C#CC3CCCCC3)cc2)c1C
MIC: 8 µg/mL
//
Smiles Structure: CCCCC#Cc1ccc(-n2nnc(C(C)=NNC(=N)N)c2C)cc1
MIC: 32 µg/mL
//
Smiles Structure: CC(=NNC(=N)N)c1nnn(-c2ccc(C#Cc3ccccc3)cc2)c1C
MIC: 16 µg/mL

====

- System: C. albicans SS5314 (wild type)
# MIC values compiled below

Compound: CC(=NNC(=N)N)c1nnn(-c2ccc(C#Cc3ccc(C)cc3)cc2)c1C
Uom: µg/mL
Relational Operator: =
MIC: 2

Compound: CC(=O)NC[C@H]1CN(c2ccc(N3CCOCC3)c(F)c2)C(=O)O1 [Linezolid, reference compound]
Uom: µg/mL
Relational Operator: >
MIC: 64

Compound: CC(=NNC(=N)N)c1nnn(-c2ccc(C#CC3CCCC3)cc2)c1C
Uom: µg/mL
Relational Operator: >
MIC: 64

Compound: CC(=NNC(=N)N)c1nnn(-c2ccc(C#Cc3ccccc3)cc2)c1C
Uom: µg/mL
Relational Operator: =
MIC: 8
